- System: NanoLuc luciferase (NLuc)
- PROTOCOL DESCRIPTION: normalised percent inhibition of luminescence (vs positive and negative controls); higher = stronger inhibition
- ASSAY SETUP: metal salt concentration 0.02 mM; screening conditions buffer
Entries and their normalised percent inhibition
Lab book: enter the figure in %, no units written.

- MOLECULE: "O=[N+]([O-])[O-].[Ag+] [silver nitrate]"
  normalised percent inhibition, %: 107
- MOLECULE: "[Cl][Pt-2]([Cl])([Cl])[Cl].[K+].[K+] [potassium tetrachloroplatinate(II)]"
  normalised percent inhibition, %: 5.06
- MOLECULE: "O=[N+]([O-])[O-].O=[N+]([O-])[O-].[Pb+2] [lead(II) nitrate]"
  normalised percent inhibition, %: -3.22
- MOLECULE: "O=S(=O)([O-])[O-].[Fe+2] [iron(II) sulfate]"
  normalised percent inhibition, %: 7.25
- MOLECULE: "O=[N+]([O-])[O-].O=[N+]([O-])[O-].[Cu+2] [copper(II) nitrate]"
  normalised percent inhibition, %: 133

Then there is this molecule:
Record for O=[N+]([O-])[O-].O=[N+]([O-])[O-].O=[N+]([O-])[O-].[Ga+3] [gallium(III) nitrate] under target or system NanoLuc luciferase (NLuc): normalised percent inhibition reported as 4.43
